- Target Or Test System: Interleukin-23 receptor (Homo sapiens, UniProt Q5VWK5)
- Sequence (Q5VWK5 whole entry): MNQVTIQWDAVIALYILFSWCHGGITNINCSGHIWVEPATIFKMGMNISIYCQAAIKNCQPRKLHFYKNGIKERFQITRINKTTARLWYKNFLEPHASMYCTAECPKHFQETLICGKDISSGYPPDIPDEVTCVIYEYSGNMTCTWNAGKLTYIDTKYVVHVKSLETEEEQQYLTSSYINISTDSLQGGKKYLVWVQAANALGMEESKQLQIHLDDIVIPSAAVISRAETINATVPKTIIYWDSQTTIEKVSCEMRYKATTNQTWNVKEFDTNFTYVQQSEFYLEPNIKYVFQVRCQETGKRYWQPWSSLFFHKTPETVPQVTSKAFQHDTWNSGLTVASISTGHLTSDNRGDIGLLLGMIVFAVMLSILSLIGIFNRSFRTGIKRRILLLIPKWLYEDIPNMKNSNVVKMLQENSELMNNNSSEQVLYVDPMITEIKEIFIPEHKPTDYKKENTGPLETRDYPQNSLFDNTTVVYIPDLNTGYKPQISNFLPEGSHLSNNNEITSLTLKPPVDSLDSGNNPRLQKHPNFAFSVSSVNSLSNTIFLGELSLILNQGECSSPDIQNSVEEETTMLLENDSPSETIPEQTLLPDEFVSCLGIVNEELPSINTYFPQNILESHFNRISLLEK
- Experiment Description: Inhibition of interleukin-23 binding to human interleukin-23 receptor incubated for 2 hrs by competitive binding ELISA
Where a SMILES comes first, the peptide text is derived from it.
Observable: IC50

{"columns": ["Molecule", "Observable", "Result"],
 "data": [
  ["CC(C)[C@H](NC(=O)[C@H](Cc1c[nH]c2ccccc12)NC(=O)[C@H](CC(=O)O)NC(=O)[C@H](C)NC(=O)[C@@H](N)CS)C(=O)N[C@@H](CS)C(=O)N[C@@H](Cc1ccc(O)cc1)C(=O)N[C@H](CC(=O)N[C@@H](Cc1cnc[nH]1)C(=O)N[C@H](C(=O)N[C@@H](Cc1ccccc1)C(=O)NCC(N)=O)[C@@H](C)O)Cc1c[nH]c2ccccc12", "IC50", "> 1000 nM"],
  ["CC(=O)N[C@H](C(=O)N[C@@H](CCC(N)=O)C(=O)N[C@H](C(=O)N[C@@H](Cc1c[nH]c2ccccc12)C(=O)N[C@@H](CCC(N)=O)C(=O)N[C@H](C(=O)N[C@@H](Cc1ccc(O)cc1)C(=O)N[C@@H](Cc1c[nH]c2ccccc12)C(=O)N[C@@H](CCC(C)C)C(=O)N[C@@H](CCC(=O)O)C(=O)N[C@@H](CC(N)=O)C(=O)NCC(N)=O)C(C)(C)S)[C@@H](C)O)C(C)(C)S", "IC50", "100 to 1000 nM"],
  ["CC(=O)N[C@@H](CS)C(=O)N[C@@H](CCC(N)=O)C(=O)N[C@H](C(=O)N[C@@H](Cc1c[nH]c2ccccc12)C(=O)N[C@@H](CCC(N)=O)C(=O)N[C@@H](CS)C(=O)N[C@@H](Cc1ccc(O)cc1)C(=O)N[C@@H](Cc1c[nH]c2ccccc12)C(=O)N[C@H](CCCNC(=N)N)C(=O)N[C@@H](CCC(=O)O)C(=O)N[C@@H](CC(N)=O)C(=O)NCC(=O)NCCOCC(=O)N[C@H](CCCCN)C(N)=O)[C@@H](C)O", "IC50", "> 1000 nM"],
  ["CC(=O)N[C@@H](CS)C(=O)N[C@@H](CCC(N)=O)C(=O)N[C@H](C(=O)N[C@@H](Cc1c[nH]c2ccccc12)C(=O)N[C@@H](CCC(N)=O)C(=O)N[C@@H](CS)C(=O)N[C@@H](Cc1ccc(O)cc1)C(=O)N[C@@H](Cc1c[nH]c2ccccc12)C(=O)N[C@@H](CCC(C)C)C(=O)N[C@@H](CCC(=O)O)C(=O)N[C@@H](CC(N)=O)C(=O)NCC(=O)N[C@@H](CCCNC(=N)N)C(N)=O)[C@@H](C)O", "IC50", "> 10000 nM"]
]}

Turning now to a further record.
In plain terms, CC(C)[C@H](NC(=O)[C@H](Cc1cnc[nH]1)NC(=O)[C@H](Cc1c[nH]c2ccccc12)NC(=O)[C@H](Cc1ccc(O)cc1)NC(=O)[C@H](CS)NC(=O)[C@H](CCCNC(=N)N)NC(=O)[C@H](Cc1c[nH]c2ccccc12)NC(=O)[C@H](CC(=O)O)NC(=O)[C@H](CO)NC(=O)[C@@H](N)CS)C(=O)N[C@@H](Cc1ccccc1)C(=O)NCC(N)=O (H-CSDWRCYWHVFG-NH2) has a documented IC50 of > 1000 nM

* * *

- Target Or Test System: Interleukin-23 receptor (Homo sapiens)
- Experiment Description: Inhibition of interleukin-23 receptor in human DB cells assessed as reduction in IL-23-stimulated STAT3 phosphorylation incubated for 30 mins by HTRF assay
- Assay type: cell-based
Observable: pIC50
Recall that pIC50 is obtained by taking minus log10 of the concentration measured in molar.

In plain terms, CC(=O)N[C@@H](CS)C(=O)N[C@@H](CN)C(=O)N[C@H](C(=O)N[C@@H](Cc1c[nH]c2ccccc12)C(=O)N[C@@H](CCC(N)=O)C(=O)N[C@@H](CS)C(=O)N[C@@H](Cc1ccc(O)cc1)C(=O)N[C@@H](Cc1c[nH]c2ccccc12)C(=O)N[C@@H](CCCNC(=N)N)C(=O)N[C@H](C(=O)N[C@@H](Cc1ccccc1)C(=O)NCC(=O)NCCOCC(=O)N[C@H](CCCCN)C(N)=O)C(C)C)[C@@H](C)O has a documented pIC50 of 7.00

* * *

- Target Or Test System: Interleukin-23 receptor (Homo sapiens, UniProt Q5VWK5)
- Sequence (Q5VWK5 whole entry): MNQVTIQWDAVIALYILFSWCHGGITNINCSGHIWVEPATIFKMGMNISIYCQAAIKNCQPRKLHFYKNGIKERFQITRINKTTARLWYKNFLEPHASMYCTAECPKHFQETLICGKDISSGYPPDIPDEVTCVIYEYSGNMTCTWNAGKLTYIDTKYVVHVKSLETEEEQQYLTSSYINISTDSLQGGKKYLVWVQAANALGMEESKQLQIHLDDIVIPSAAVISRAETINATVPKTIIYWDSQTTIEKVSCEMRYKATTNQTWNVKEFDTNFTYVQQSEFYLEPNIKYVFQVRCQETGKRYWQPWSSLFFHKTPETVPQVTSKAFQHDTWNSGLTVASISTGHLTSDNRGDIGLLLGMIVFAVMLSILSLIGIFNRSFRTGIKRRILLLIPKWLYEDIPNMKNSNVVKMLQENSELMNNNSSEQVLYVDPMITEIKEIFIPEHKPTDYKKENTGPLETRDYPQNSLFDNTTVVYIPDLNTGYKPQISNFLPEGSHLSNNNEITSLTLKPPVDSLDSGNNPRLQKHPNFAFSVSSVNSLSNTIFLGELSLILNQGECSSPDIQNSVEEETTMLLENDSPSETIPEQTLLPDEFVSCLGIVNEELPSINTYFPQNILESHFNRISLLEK
- Experiment Description: Inhibition of interleukin-23 binding to human interleukin-23 receptor incubated for 2 hrs by competitive binding ELISA
pIC50: −log10 of the molar value.
Observable: pIC50

{"columns": ["Compound", "Target Or Test System", "Observable", "Result"],
 "data": [
  ["CC(=O)NC1CC/C=C\\CCC(C(=O)N[C@@H](Cc2ccc(O)cc2)C(=O)N[C@@H](Cc2c[nH]c3ccccc23)C(=O)N[C@@H](CCCNC(=N)N)C(=O)N[C@@H](CCCCN)C(=O)N[C@@H](Cc2ccccc2)C(=O)NCC(=O)NCCOCC(=O)N[C@H](CCCCN)C(N)=O)NC(=O)[C@H](CCC(N)=O)NC(=O)[C@H](Cc2c[nH]c3ccccc23)NC(=O)[C@H]([C@@H](C)O)NC(=O)[C@H](CCCNC(=N)N)NC1=O (some centres not stated)", "Interleukin-23 receptor (Homo sapiens, UniProt Q5VWK5)", "pIC50", "6.00 to 7.00"]
]}

Turning now to a further record.
# value of pIC50, Interleukin-23 receptor (Homo sapiens, UniProt Q5VWK5), item CC(=O)N[C@@H](CS)C(=O)N[C@@H](CCCNC(=N)N)C(=O)N[C@@H](CC(=O)O)C(=O)N[C@@H](Cc1c[nH]c2ccccc12)C(=O)N[C@@H](CCC(N)=O)C(=O)N[C@@H](CS)C(=O)N[C@@H](Cc1ccc(O)cc1)C(=O)N[C@@H](Cc1c[nH]c2ccccc12)C(=O)N[C@@H](CCCNC(=N)N)C(=O)N[C@H](CCCCN)C(=O)N[C@@H](Cc1ccccc1)C(=O)NCC(=O)NCCOCCC(=O)N[C@H](CCCCN)C(N)=O = < 6.00

* * *

- Experiment Description: Half life in simulated intestinal fluid at 20 uM by LC-MS/MS analysis
- Assay type: ADME
half-life at 20 µM values, listed per item

These recorded examples may help you get a feel for the data.
{"columns": ["Structure String", "Observable", "Result"],
 "data": [
  ["CC(=O)N[C@H]1CCSC[C@@H](C(=O)N[C@@H](Cc2ccc(OCCN)cc2)C(=O)N[C@@H](Cc2ccc3ccccc3c2)C(=O)N[C@@](C)(CCCCN)C(=O)N[C@@H](CCC(=O)O)C(=O)N[C@@H](CC(N)=O)C(=O)NCC(N)=O)NC(=O)[C@H](CCC(N)=O)NC(=O)[C@H](Cc2c[nH]c3ccccc23)NC(=O)[C@H]([C@@H](C)O)NC(=O)[C@H]([C@@H](C)O)NC1=O", "half-life at 20 µM", "3 to 6 h"],
  ["CC(=O)N[C@H](C(=O)N[C@@H](CCC(N)=O)C(=O)N[C@H](C(=O)N[C@@H](Cc1c[nH]c2ccccc12)C(=O)N[C@@H](CCC(N)=O)C(=O)N[C@H](C(=O)N[C@@H](Cc1ccc(OCCN)cc1)C(=O)N[C@@H](Cc1ccc2ccccc2c1)C(=O)N[C@@](C)(CCCCN)C(=O)N[C@@H](CCC(=O)O)C(=O)N[C@@H](CC(N)=O)C(=O)N[C@@H](C)C(N)=O)C(C)(C)S)[C@@H](C)O)C(C)(C)S", "half-life at 20 µM", "> 6 h"]
]}

Turning now to a further record.
In plain terms, CC(=O)N[C@H]1CCSC[C@@H](C(=O)N[C@@H](Cc2ccc(OCCN)cc2)C(=O)N[C@@H](Cc2ccc3ccccc3c2)C(=O)NC(C)(C)C(=O)N[C@@H](CCC(=O)O)C(=O)N[C@@H](CC(N)=O)C(=O)NCC(N)=O)NC(=O)[C@H](CCC(N)=O)NC(=O)[C@H](Cc2c[nH]c3ccccc23)NC(=O)[C@H]([C@@H](C)O)NC(=O)[C@H](CCC(N)=O)NC1=O has a documented half-life at 20 µM of < 1 h
